system: MiaPaCa-2 (Mut) pancreatic tumor cells; experiment: CyQUANT proliferation assay; assay type: cell-based; conditions: Homo sapiens, MIA PaCa-2; Table 11, pancreatic; read-out: IC50 (μM) MiaPaCa-2 (Mut)
For each of the compounds below, state its IC50.
One number for each entry, in µM.

Compound	Quantity Unit	IC50
COc1ccc([C@@H](C)N(CC=C(c2ccccc2)c2ccccc2)CCN2CCN(C)CC2)cc1	µM	3

For each listed entry, give its IC50.
1. COc1ccc([C@@H](C)N(CC=C(c2ccccc2)c2ccccc2)CCN2CCCC2)cc1
2. COc1ccc([C@@H](C)N(CC=C(c2ccccc2)c2ccccc2)CCCN2CCN(C)CC2)cc1
3. CC(NCCC(c1ccccc1)c1ccccc1)c1ccccc1 (stereo not shown)

[3.1, 2.8, 9.2]

* * *

target: mGFP-K-RASG12V (Homo sapiens (Human), UniProt P01116, G12V); test: K-Ras mislocalization assay (confocal microscopy, Manders coefficient); format: cell-based; settings: MDCK cells, 48 h treatment; read-out: IC50 (μM), KRASG12V mislocalization
Measured Metric: IC50 (µM)
Give bare numbers, in µM.

Sample records with IC50:
Compound	Quantity Unit	Readout Value
COc1ccc([C@@H](C)N(CC=C(c2ccccc2)c2ccccc2)CCO)cc1 [NY0241]	µM	0.2
C#CCN1CCN(CCN(CC=C(c2ccccc2)c2ccccc2)[C@H](C)c2ccc(OC)cc2)CC1 [NY356]	µM	4.19

Field: IC50. Fill in for each record below.
1. CC1CCc2ccccc2N1CC=C(c1ccccc1)c1ccccc1 (centres unmarked) [NY304]
2. COc1ccc([C@@H](C)N(CC=C(c2ccccc2)c2ccccc2)CCN2CCN(C(=O)Oc3ccccc3)CC2)cc1 [NY353]

1: 2.95; 2: 3.26

Look up IC50 for this compound: CCN(CC=C(c1ccccc1)c1ccccc1)[C@@H](C)c1ccc(OC)cc1 [NY0431] 2.91

* * *

Target: mGFP-K-RASG12V (Homo sapiens (Human), UniProt P01116, G12V)
Test: K-Ras mislocalization assay (confocal microscopy, Manders coefficient)
Format: cell-based
Settings: MDCK cells, 48 h treatment; read-out: IC50 (μM), KRASG12V mislocalization
Protocol: Madine Darby Canine Kidney epithelial cells (MDCK) stably co-expressing mGFP-tagged full length oncogenic mutant K-Ras (GFP—K-RASG12V) or mGFP-LactC2 (peptide probe for phosphatidylserine) and mCherry-tagged to the amino acids 179-189 of H-RasC181S, C184S (mCherry-CAAX, localizes primarily to endomembranes) were grown in DMEM-high glucose/sodium pyruvate/10% FBS. […]
Answer each item with its documented IC50.
One number for each entry, in µM.

// below: answered compounds
Compound	Readout Value
CN1CCN(CCN(CC=C(c2ccccc2)c2ccccc2)C2(c3ccccc3)CC2)CC1	0.91
COc1ccc([C@@H](C)N(CC=C(c2ccccc2)c2ccccc2)CCN2CC2)cc1	5.1
COc1ccc([C@@H](C)N(CC=C(c2ccccc2)c2ccccc2)CCN2CCNC(=O)C2)cc1	7.7

// for each compound below, give its IC50
1. C[C@H](c1ccc(F)cc1)N(CC=C(c1ccccc1)c1ccccc1)CCn1cc(-c2ccc(F)cc2)nn1
2. C=CCN(CCN1CCN(C)CC1)[C@H](C)c1ccc(OC)cc1
3. O=C(c1cc2ccccn2n1)N(CC=C(c1ccccc1)c1ccccc1)CCN1CCCC1
4. COc1ccc([C@@H](C)N(CC=C(c2ccccc2)c2ccccc2)CCCC=O)cc1
5. COc1ccc(/C(=C\CN(CCN2CCCC2)[C@H](C)c2ccc(F)cc2)c2ccccc2)cc1
6. COc1ccc([C@@H](C)N(CC=C(c2ccccc2)c2ccccc2)CCN2CCN(C(=O)Nc3ccccc3)CC2)cc1
7. Cc1ccc(C(=CCN(CCN2CCCC2)[C@H](C)c2ccc(F)cc2)c2ccc(C)cc2)cc1
8. COc1ccc([C@@H](C)N(CC=C(c2ccccc2)c2ccccc2)C(=O)CN2CCC(O)CC2)cc1

1. 3.32
2. 59.3
3. 6.63
4. 2.02
5. 2.02
6. 1.68
7. 7.8
8. 2.19
